Tested on: OVCAR-5
EXPERIMENT SUMMARY: NCI tumour cell line growth inhibition, 48 h
Calls of active or inactive are those of the source. Rule as the data show it: active = GI50 up to about 1.1 µM and inactive = higher. Non-standard residues stand in square brackets, D forms with d. Residues, ends and D or L forms follow the SMILES beside them.

# COMPOUND, GI50
measured = [
    ("O=C1CCSSCCC(=O)NCCN1", "> 100 µM (inactive)"),
    ("CCOc1ccc(NC(=O)CC2SC(N)=NC2=O)cc1 (stereo not given)", "> 100 µM (inactive)"),
    ("C[C@@H]1CC[C@@]2(OC1)O[C@H]1C[C@H]3[C@@H]4CC[C@H]5C[C@@H](OC6OC(CO)C(OC7OC(CO)C(O)C(OC8OCC(O)C(O)C8O)C7OC7OC(CO)C(O)C(O)C7O)C(O)C6O)[C@H](O)C[C@]5(C)[C@H]4CC[C@]3(C)[C@H]1[C@@H]2C (stereo not given in full)", "4.76 µM (inactive)"),
    ("COC(=O)C1Cc2cc3c(cc2C1=O)CCC3 (stereo not given)", "> 100 µM (inactive)"),
    ("COc1ccc(/N=N\\c2c(N)nn3c(SC)c(C#N)c(N)nc23)cc1", "17.6 µM (inactive)"),
    ("CC(C)C[C@H](NC(=O)[C@H](CC(C)C)NC(=O)[C@@H](Cc1c[nH]c2ccccc12)NC(=O)[C@H](Cc1ccccc1)NC(=O)[C@@H](Cc1c[nH]c2ccccc12)NC(=O)[C@H](CCC(N)=O)NC(=O)[C@H](CCC(N)=O)NC(=O)[C@H]1CCCN1C(=O)[C@@H](N)CCCCN)C(N)=O (H-K[dP]QQ[dW]F[dW]LL-NH2)", "> 100 µM (inactive)"),
    ("O=C(/C=C/c1ccc(O)c(O)c1)OC1C[C@@](O)(C(=O)O)C[C@@H](O)[C@H]1OC(=O)/C=C/c1ccc(O)c(O)c1 (stereo not given in full)", "> 100 µM (inactive)"),
    ("CC1(C)N=C(N)N=C(N)N1c1cccc(CSc2ccccc2)c1", "52.1 µM (inactive)"),
    ("Cc1cc(C)nc(NC(=S)Nc2ccc(Cl)cc2)c1", "29.2 µM (inactive)"),
    ("Oc1ccc(-c2nc3ccc(Br)cc3s2)cc1", "24 µM (inactive)"),
    ("Oc1nc2c(c(-c3cccc(Cl)c3)n1)COC/C2=C\\c1cccc(Cl)c1", "> 100 µM (inactive)"),
    ("Cc1ccc(S(=O)(=O)C2=Cc3ccccc3C2(O)c2ccccc2)cc1 (stereo not given)", "60.4 µM (inactive)"),
    ("COc1ccc(OC)c2c1C(=O)C(O)=C(Cl)C2=O", "> 100 µM (inactive)"),
    ("COc1ccc(C2SCC(=O)N2NC(=O)c2ccc(NC(C)=O)cc2)c(OC)c1 (stereo not given)", "> 100 µM (inactive)"),
    ("O=C1OC(=O)C2CCCC3CCCC1C32 (stereo not given)", "> 100 µM (inactive)"),
]

* * *

Tested on: RXF 631
EXPERIMENT SUMMARY: NCI tumour cell line growth inhibition, 48 h
The source made the active and inactive calls. Rule as the data show it: active = GI50 up to about 1.1 µM and inactive = higher.
Classes used: class 1 (active), class 0 (inactive)

# MOLECULE, ASSAYED TARGET, LABEL VALUE
measured = [
    ("COC(=O)c1nc(N)nc(C(=O)OC)c1C(=O)c1ccccc1", "RXF 631", "class 0"),
    ("CC1=CC(C)(C)N=C2SC(c3ccc(N)cc3)=NN12", "RXF 631", "class 0"),
    ("COc1ccc2c(c1)[n+]([O-])c(-c1c(Cl)cccc1Cl)c(N)[n+]2[O-]", "RXF 631", "class 0"),
    ("Cc1c[nH]c2c(O)cc3c(c12)[C@H](CCl)CN3C(=O)c1cc2cc(NC(=O)Nc3ccc4[nH]c(C(=O)N5C[C@@H](CCl)c6c5cc(O)c5[nH]cc(C)c65)cc4c3)ccc2[nH]1", "RXF 631", "class 1"),
    ("Cc1ccccc1C1OC(=O)c2ccc3ccccc3c21 (stereo not drawn)", "RXF 631", "class 1"),
    ("NC(CNc1ccc(O)cc1)C(=O)O (stereo not drawn)", "RXF 631", "class 0"),
    ("c1ccc(C2OC3(CCC[C@H]4C[C@H]43)O[C@H]2c2ccccc2)cc1 (stereo partly drawn)", "RXF 631", "class 0"),
    ("COc1cc([C@@H]2c3cc4c(cc3[C@@H](NC(=O)c3ccc(C(C)=O)cc3)C3COC(=O)[C@@H]32)OCO4)cc(OC)c1O (stereo partly drawn)", "RXF 631", "class 0"),
]

The measured values listed here are drawn from ChEMBL document CHEMBL1201862.
